Item-by-item account of growth
Tested on: NCI-H226 lung
Assay: NCI-60 one-dose screen, 48 h (100 = growth as untreated, 0 = no growth, -100 = all killed)
Conditions: 10 µM unless noted
Procedure: Growth inhibition of the NCI-H226 human Non-Small Cell Lung tumor cell line is measured as a screen for anti-cancer activity. Cells are grown in 96 well plates and exposed to the test compound for 48 hours. Compounds are tested at a single concentration, which is 10^-5 M for most compounds. The reported endpoint is percent growth (GI% or GIPRCNT), where numbers from 0 - 100% represent growth inhibition, and numbers from -100% - 0 represent cell death. […]
This is part of a sample that, as a whole, favours compounds with a hit. Of some 83,000 tested, about 20% had one in any assay. Activity calls are given as the source filed them. The calls were made as follows: active = growth percent below 10; inactive = the rest.
recorded-metric: growth

>>> result("CC(=O)Oc1cc(C)c(OC(C)=O)c(C)c1C")
"101% (inactive)"
>>> result("N=c1sc2ccccc2n1CC(=O)O")
"98.1% (inactive)"
>>> result("CC(=O)Nc1ccc2oc(=O)ccc2c1")
"96.5% (inactive)"
>>> result("O=[N+]([O-])c1ccc(NC(c2ccccc2)c2ccc3cccnc3c2O)cc1 (stereo unspecified)")
"16.6% (inactive)"
>>> result("S=c1nn[nH]n1C1CCCCC1")
"102% (inactive)"
>>> result("O=C1c2ccccc2C(c2ccccc2)C1c1ccccc1 (stereo unspecified)")
"101% (inactive)"
>>> result("COc1cc2c(cc1O)C(=O)CCCC2")
"102% (inactive)"
>>> result("O=C(N=C1C(=O)C2(CCCCC2)C2(N=C(c3ccccc3)OC2=O)C12CCCCC2)c1ccccc1 (stereo unspecified)")
"70.2% (inactive)"
>>> result("CCNC1=CC(=O)c2ncccc2C1=O")
"33.9% (inactive)"
>>> result("CCCCCCC(C)CC1=C(O)c2ccccc2C(=O)C1=O (stereo unspecified)")
"37.3% (inactive)"
>>> result("NCCCCCC(=O)O")
"101% (inactive) [middle of 4 runs]"
